B1: Osa-1-4 twister ribozyme (parent)
chain: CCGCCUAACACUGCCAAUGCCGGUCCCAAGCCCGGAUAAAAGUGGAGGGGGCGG

Variants of: B1
Test: self-cleavage, relative activity (ratio to wild type); higher = more cleavage; co-transcriptional
Label scheme for self-cleavage: lower than 0.1 is N, 0.1 and above is Y.

Known results for variants:
G19C G44U :: N
A39C G23U :: N
C52G :: Y
G47C G54A :: Y

Query: Is self-cleavage for A40G C15U at or above 0.1?
Reply: Y

Query: Exam item: decide whether the reported self-cleavage for C52A G48U is at least 0.1.
Reply: N

Query: Is reported self-cleavage greater than or equal to 0.1 here: C52A G50C
Reply: Y

Query: Form field: self-cleavage at least 0.1? Entry: C27G G23C
Reply: N

Query: Determine whether this variant has self-cleavage no lower than 0.1: A46C A7C
Reply: N

Query: Item C15G G51C with self-cleavage of 0.1 or above?
Reply: N

Query: State whether the measured self-cleavage reaches 0.1, counting equality as reaching it, for C26U G45C
Reply: N
